src = patent US20260258115A1

- Target Under Test: RSV F on RSV subtype A virus (RSV-A2) (Respiratory Syncytial Virus, subtype A, …, UniProt P03420 26-574)
- Test Description: cell-based or functional assay
As shown below, each of these binders has a reported neut IC50 (ug/ml) subtype A (wright) value.
Reported Endpoint: neut IC50 (ug/ml) subtype A (wright) (µg/mL)

INSERT INTO results (binder, unit, recorded_number) VALUES
  ('ADI-41221 (antibody, V domains shown) VH: EVQLLESGGGLVKPGGSLRLSCAASGFTFSDYTMNWVRQAPGKGLEWVSSISITSSHIYYADSVKGRFTISRDNAKNSLYLQINSLRAEDTAAYYCARELGFASSSYSYYYGMDVWGQGTTVTVSS VL: QSALTQPRSVSGSPGQSVTISCTGTSSDVGDYNSVSWYQQHPGTAPKLIIFDVTQRPSGVPDRFSGSKSANTASLTISGLQPEDEADYYCCSFAGNYVFGTGTKVTVL', 'µg/mL', 0.04),
  ('ADI-41208 (antibody, V domains shown) VH: QVQLVESGGDLVKPGGSLRLSCAASGFTLSGHYMSWIRQPPGKGLEWVSSISGGSTYTNYADSVKGRFTISRDNAENSLYLQMNSLRAEDTAVYYCARLAYSDYGPFYFDLWGRGTLVTVSS VL: QSVLTQPPSVSGAPGQRVTISCTGSSSNIGAGYDVHWYQQLTGTAPKLLIFDNNNRPSGVPDRFSGSKSGTSASLAITGLQAEDEADYYCQSYDSRLSAPYVFGTGTKLTVL', 'µg/mL', 0.077);
